- assay-remarks: label from the status in PepcDB records;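 also: failed if final PepcDB status was selected cloned or expressed and not failed if soluble or beyond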
measurement-label: protein production

[
  {
    "primary-sequence": "MTPSLSGLPPIRTALIGYGFAGKTFHAPLIRAVPALCLEHVVSRDPGRVHADLPEARVSADPDEAIEAADIDLVVIASPNATHASLAERALRAGKHVVVDKPFTVTLAEARRLADLARERPGQVLSVFQNRRFDSDFLAVEAALQAGSIGPVRYFESAIERFRPQVRDRWREHDLPGSGLWFDLGPHLLDQALCLFGVPQRVHGHLRRLREGALTDDWFEVLLDYPHCQVALRASMLAANPAPRFNVHGDHGSLLKAGADIQEAQLLQGLHPGSAGWGRDPDLLQHIDGQGLRQSLVTPAGDQSRYYQALAAAIRGQSRNPVSAQQACALMALLELARRSAEEGRSLPVELRDEERQAWN",
    "measurement-label": "protein production",
    "measured": "failed"
  },
  {
    "primary-sequence": "PHSMEPQVTLNVTFKNEIQSFLVSDPENTTWADIEAMVKVSFDLNTIQIKYLDEENEEVSINSQGEYEEALKMAVKQGNQLQMQVHEG",
    "measurement-label": "protein production",
    "measured": "not failed"
  },
  {
    "primary-sequence": "MAEKTYSGFVAIVGKPNVGKSTLLNNLLGVKVAPISPRPQTTRKRLRGILTEGRRQIVFVDTPGLHKPMDALGEFMDQEVYEALADVNAVVWVVDLRHPPTPEDELVARALKPLVGKVPILLVGNKLDAAKYPEEAMKAYHELLPEAEPRMLSALDERQVAELKADLLALMPEGPFFYPEDYAKSDQTFGEWVAEILREEAMKRLWHEVPYAVATKVEEVAERENGVLYIKAILYVERPSQKAIVIGEGGRKIKEIGQATRKQLEALLGKKVYLDLEVKVYPDWRKDPEALRELGYRSSVG",
    "measurement-label": "protein production",
    "measured": "not failed"
  },
  {
    "primary-sequence": "MLHWISLLCAGCLEMAGVALMNQYAKEKSVKWVLLIIVGFAASFSLLSYAMETTPMGTAYAVWTGIGTAGGALIGILFYKEQKDAKRIFFIALILCSAVGLKILS",
    "measurement-label": "protein production",
    "measured": "failed"
  },
  {
    "primary-sequence": "EARGFTAEDFALSHPGGALGRKLLLRVNDIMHTGDEIPHVGLQATLRDALLEITRKNLGMTAICDDDMNIIGIFTDGDLRRVFDTGVDMRDASIADVMTRGGIRIRPGTLAVDALNLMQSRHITCVLVADGDHLLGVVHMHDLLRA",
    "measurement-label": "protein production",
    "measured": "not failed"
  }
]

Asked: Give the measured protein production of KNRLGTKALNFTYTLDSGVKGTLYQFPAEYTLLFINNPGCHACAEMIEGLKASPVINGFTAAKKLKVLSIYPDEELDEWKKHRNDFAKEWTNGYDKELVIKNKNLYDLRAIPTLYLLDKNKTVLLKDATLQKVEQYLAE .
Given back: not failed

Asked: How about MNRVIACIDSSPCINAIAEAAAWVARQTKRELVLLQILDYYPASYHLGEISGVIGFESNAMLLKELAELEQKQSDLAIDYSNNLLKHISDMILEKYGIQSTKIQEKGDFLEQSFNVLRETDFVIIGKVGERAAEKNKPIGSNVENFIRGANCTVMTVGEHFKIPTRFIFAYEYSPTCLNLMQRIAQSDLLKTLQCHLLYVGDHPEVLKDPEEFLKNAGLDVITVYRYGDVAENILEYQKELGIQMIVLGAFSHSKIHQFFLGSIATSIFRNATVPLLVAK ?
Given back: failed
